Recorded pIC50 for the following molecules
Tested on: T-47D human breast cancer cells;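 further: cell viability read as absorbance of formazan dye at 570 nm, each experiment run in triplicate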
procedure-details: cells
Type: cell-based
pIC50: −log10 of the molar value.

molecule	pIC50
CO[C@@H]1[C@@H](O)[C@H](O[C@@H]2[C@@H](O)[C@H](O[C@H]3[C@H](O)[C@@H](O)[C@H](O[C@H]4[C@H](O[C@H]5CC[C@]6(C)C7=CCC89C(=O)O[C@@](C)([C@@H](CCC(C)C)OC(C)=O)[C@H]8[C@@H](OC(C)=O)C[C@@]9(C)[C@@H]7CC[C@H]6C5(C)C)OC[C@@H](O)[C@@H]4O)O[C@@H]3C)OC[C@H]2O)O[C@H](CO)[C@H]1O (stereo partly shown)	< 4.70
C=C(C)CC[C@@H](OC(C)=O)[C@]1(C)OC(=O)C23CC=C4[C@@H](CC[C@H]5C(C)(C)[C@@H](O[C@@H]6OC[C@@H](O[C@@H]7O[C@H](CO)[C@@H](O)[C@H](O[C@@H]8O[C@H](CO)[C@@H](O)[C@H](OC)[C@H]8O)[C@H]7O)[C@H](O)[C@H]6O[C@@H]6O[C@H](C)[C@@H](O[C@@H]7OC[C@@H](O)[C@H](O[C@@H]8O[C@H](CO)[C@@H](O)[C@H](OS(=O)(=O)O)[C@H]8O)[C@H]7O)[C@H](O)[C@H]6O)CC[C@]45C)[C@]2(C)C[C@H](OC(C)=O)[C@@H]31 (stereo partly shown) [Cladoloside T (3)]	5.09
C=C(C)CC[C@@H](OC(C)=O)[C@]1(C)OC(=O)C23CC=C4[C@@H](CC[C@H]5C(C)(C)[C@@H](O[C@@H]6OC[C@@H](O[C@@H]7O[C@H](CO)[C@@H](O)[C@H](O[C@@H]8O[C@H](CO)[C@@H](O)[C@H](OC)[C@H]8O)[C@H]7O)[C@H](O)[C@H]6O[C@@H]6O[C@H](C)[C@@H](O[C@@H]7OC[C@@H](O)[C@H](O[C@@H]8O[C@H](CO)[C@@H](O)[C@H](OC)[C@H]8O)[C@H]7O)[C@H](O)[C@H]6O)CC[C@]45C)[C@]2(C)C[C@H](O)[C@@H]31 (stereo partly shown) [C3 (16), cladoloside C3]	< 4.70
C=C(C)CC[C@@H](OC(C)=O)[C@]1(C)OC(=O)C23CC=C4[C@@H](CC[C@H]5C(C)(C)[C@@H](O[C@@H]6OC[C@@H](O[C@@H]7O[C@H](CO)[C@@H](O)[C@H](O)[C@H]7O)[C@H](O)[C@H]6O[C@@H]6O[C@H](C)[C@@H](O[C@@H]7OC[C@@H](O)[C@H](O[C@@H]8O[C@H](COS(=O)(=O)[O-])[C@@H](O)[C@H](OC)[C@H]8O)[C@H]7O)[C@H](O)[C@H]6O)CC[C@]45C)[C@]2(C)C[C@H](OC(C)=O)[C@@H]31.[Na+] (stereo partly shown) [I2 (29), cladoloside I2]	< 4.70

// provenance: paper PMC12299463
